Reference for the values: the RNAGym collection of RNA variant scans (doi:10.7554/elife.90254)

B1: LINE1-full (parent)
chain: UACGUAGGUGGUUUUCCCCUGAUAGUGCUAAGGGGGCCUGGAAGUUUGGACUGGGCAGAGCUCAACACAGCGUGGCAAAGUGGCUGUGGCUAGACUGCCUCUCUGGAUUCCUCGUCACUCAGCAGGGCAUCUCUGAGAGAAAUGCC

# Variants of: B1
# METHOD_NOTES: self-cleavage, relative activity (ratio to wild type); higher = more cleavage; in vitro, sequencing; the parent is a self-cleaving ribozyme
The following variants are listed with their measured self-cleavage values.
# output: bare number, no unit

Known self-cleavage results, listed for orientation:
U14C A138U : 0.98
A78G A138C : 1.31
G127U A138G : 1.29
U5A A65C : 0.08
U47A G137U : 1.36

QUERY: I have this variant here, A42G A117G , and I need its recorded self-cleavage.
RESULT: 1.71

QUERY: I have this variant here, C37G U62C , and I need its recorded self-cleavage.
RESULT: 0.12

QUERY: I have this variant here, C66A A107U , and I need its recorded self-cleavage.
RESULT: 0.05
